- run_description: Three-treatment crossover pharmacokinetics of IN nalmefene, three dosing regimens (Example 13)
- condition: human, plasma, other: intranasal (IN spray), 3 mg, AUC0-20 min, mean, Treatment A (T1) 3 mg in one nostril
endpoint_name: AUC(0-t)
Quick note: unit goes after the number.

Q. Find the recorded AUC(0-t) belonging to C=C1CC[C@@]2(O)[C@H]3Cc4ccc(O)c5c4[C@@]2(CCN3CC2CC2)[C@H]1O5 and report it.
A. 1.92 ng·h/mL

###

- run_description: Three-treatment crossover pharmacokinetics of IN nalmefene, three dosing regimens (Example 13)
- condition: human, plasma, other: intranasal (IN spray), 6 mg, […], Median; Time 0.166; T3: 6 mg nalmefene HCl IN, two 0.1 mL sprays in one nostril
endpoint_name: concentration at […] (ng/mL)
Value expressed in ng/mL; do not type the unit.

Q. Find the recorded concentration at […] belonging to C=C1CC[C@@]2(O)[C@H]3Cc4ccc(O)c5c4[C@@]2(CCN3CC2CC2)[C@H]1O5 and report it.
A. 8.55
